Measured IC50, listed per entry for reference.
# Subject Of Test: recombinant human integrin αvβ6 (Homo sapiens (Human), UniProt P06756+P18564)
# Sequence (P06756 31-992): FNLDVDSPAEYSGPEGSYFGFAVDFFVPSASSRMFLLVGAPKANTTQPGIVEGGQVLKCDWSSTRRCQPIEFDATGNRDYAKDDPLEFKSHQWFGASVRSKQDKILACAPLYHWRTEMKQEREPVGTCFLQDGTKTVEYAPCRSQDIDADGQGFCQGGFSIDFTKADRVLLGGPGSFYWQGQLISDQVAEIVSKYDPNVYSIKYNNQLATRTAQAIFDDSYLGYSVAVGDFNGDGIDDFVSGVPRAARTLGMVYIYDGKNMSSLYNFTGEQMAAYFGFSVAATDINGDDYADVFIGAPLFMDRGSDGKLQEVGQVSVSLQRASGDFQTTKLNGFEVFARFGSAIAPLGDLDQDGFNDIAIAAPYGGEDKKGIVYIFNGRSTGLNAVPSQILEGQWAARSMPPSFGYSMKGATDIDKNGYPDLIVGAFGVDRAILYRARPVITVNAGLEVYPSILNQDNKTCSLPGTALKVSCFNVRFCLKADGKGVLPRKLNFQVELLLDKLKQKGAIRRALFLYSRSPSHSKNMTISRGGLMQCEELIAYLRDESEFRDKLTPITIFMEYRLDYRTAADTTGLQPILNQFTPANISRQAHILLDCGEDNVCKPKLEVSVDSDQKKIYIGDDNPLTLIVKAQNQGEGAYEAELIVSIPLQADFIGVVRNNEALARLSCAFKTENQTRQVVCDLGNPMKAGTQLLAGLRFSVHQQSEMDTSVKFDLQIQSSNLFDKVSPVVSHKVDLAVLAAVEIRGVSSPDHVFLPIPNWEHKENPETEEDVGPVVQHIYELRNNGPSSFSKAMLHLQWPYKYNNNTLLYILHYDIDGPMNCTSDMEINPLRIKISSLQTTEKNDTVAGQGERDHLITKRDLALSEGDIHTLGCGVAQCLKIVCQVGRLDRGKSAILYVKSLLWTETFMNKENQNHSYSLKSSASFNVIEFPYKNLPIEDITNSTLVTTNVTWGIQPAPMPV
# Sequence (P18564 22-707): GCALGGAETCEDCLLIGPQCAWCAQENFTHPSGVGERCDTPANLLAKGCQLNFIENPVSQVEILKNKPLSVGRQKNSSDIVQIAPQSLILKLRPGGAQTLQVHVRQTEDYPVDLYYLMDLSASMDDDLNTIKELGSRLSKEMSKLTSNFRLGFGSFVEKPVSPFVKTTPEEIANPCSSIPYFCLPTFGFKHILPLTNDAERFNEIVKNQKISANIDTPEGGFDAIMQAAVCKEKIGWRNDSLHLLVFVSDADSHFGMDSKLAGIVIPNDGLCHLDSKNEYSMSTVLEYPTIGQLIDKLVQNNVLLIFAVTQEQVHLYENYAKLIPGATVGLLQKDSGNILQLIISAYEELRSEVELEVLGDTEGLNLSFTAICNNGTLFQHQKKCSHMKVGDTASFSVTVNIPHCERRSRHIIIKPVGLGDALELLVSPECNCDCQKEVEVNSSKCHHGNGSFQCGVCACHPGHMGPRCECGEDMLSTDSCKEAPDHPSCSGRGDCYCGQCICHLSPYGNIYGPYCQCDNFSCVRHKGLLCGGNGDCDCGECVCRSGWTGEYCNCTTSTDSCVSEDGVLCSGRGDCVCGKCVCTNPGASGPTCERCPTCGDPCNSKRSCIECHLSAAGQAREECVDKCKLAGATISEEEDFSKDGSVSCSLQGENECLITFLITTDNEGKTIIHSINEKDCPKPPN
# Protocol Text: Solid Phase Integrin αvβ6 Binding Assay
# Run Parameters: inhibition of recombinant TGFβ1 LAP binding to coated integrin; IC50 given as range

>  <Compound>
O=C(N[C@@H](CCN1CCC(NCc2ccc3c(n2)NCCC3)CC1)C(=O)O)C1CCC(F)(F)CC1

>  <Subject Of Test>
recombinant human integrin αvβ6 (Homo sapiens (Human), UniProt P06756+P18564)

>  <Value Observed>
> 1000 nM

$$$$
>  <Compound>
Cc1cc(C)n(-c2cccc(C(=O)N[C@@H](CCN3CC(CCc4ccc5c(n4)NCCC5)CC(F)(F)C3)C(=O)O)c2)n1 (stereo partly shown)

>  <Subject Of Test>
recombinant human integrin αvβ6 (Homo sapiens (Human), UniProt P06756+P18564)

>  <Value Observed>
250 to 4000 nM

$$$$
>  <Compound>
O=C(N[C@@H](CCN1CCC[C@@](F)(CCc2ccc3c(n2)NCCC3)C1)C(=O)O)C1CCC(F)(F)CC1

>  <Subject Of Test>
recombinant human integrin αvβ6 (Homo sapiens (Human), UniProt P06756+P18564)

>  <Value Observed>
50 nM

$$$$
>  <Compound>
NCCCc1ccc(CCC2CC3CCC2N3CC[C@H](NC(=O)c2cc(F)cc(C(F)(F)F)c2)C(=O)O)nc1 (stereo partly shown)

>  <Subject Of Test>
recombinant human integrin αvβ6 (Homo sapiens (Human), UniProt P06756+P18564)

>  <Value Observed>
< 50 nM

$$$$

Request: Return reported IC50; argument: CC(C)(O)CN1CCCC1C(=O)N[C@@H](CCN1CC(OCCc2ccc3c(n2)NCCC3)C1)C(=O)O (stereo partly shown)
Result: 250 to 1000 nM

Request: Return reported IC50; argument: O=C(O)[C@H](CCN1CC(CCc2ccc3c(n2)NCCC3)C1)NC(=O)[C@@H]1CCCN1Cc1ccccc1
Result: > 1000 nM

Request: Return reported IC50; argument: Cn1ncc2ccc(C(=O)N[C@@H](CCN3CCC[C@@](F)(CCc4ccc5c(n4)NCCC5)C3)C(=O)O)cc21
Result: 50 nM
